# STUDY SYSTEM: CRF receptor (Rattus norvegicus)
# Construct: 100 μl of membrane suspension as prepared above to give a total reaction volume of 300 μl; from tissue; host or cells: rat cerebral cortex membrane homogenate
# PROCEDURE DETAILS: In vitro CRF receptor binding assay (competition with [125I] ovine CRF, rat cortex membranes)
# EXPERIMENTAL SETUP: read-out: Inhibition Ki
# Procedure: In vitro Receptor Binding Assay Tissue Preparation: Male Sprague Dawley rats (180-200 g) were sacrificed by decapitation and the cortex was dissected on ice, frozen whole in liquid nitrogen and stored at −70° C. until use. […] The resulting pellets were surface washed twice by centrifugation with 1 mL of ice-cold phosphate buffered saline and 0.01% Triton X-100; the supernatants discarded and the pellets monitored for radioactivity at approximately 80% efficiency. […]
Kindly state Ki for each of the entries shown.

Query: Ki; subject: CCN(c1nc(C)cc(C(C)(C)O)n1)c1ccc(C(C)C)cc1Br < 500 nM

Recorded Ki of Cc1cc(Cl)nc2c1ccn2-c1ccc(C(C)C)cc1Br , please. < 500 nM

Consider the compound shown here: CCN(c1nc(C)cc(C(=O)NC2CCCCC2)n1)c1ccc(C(C)C)cc1Br What is its recorded Ki? 501 to 2000 nM

What value of Ki has been reported for the following compound? CCCCc1ccc(N(CC)c2nc(C)cc(C)n2)c(Br)c1 < 500 nM

Any idea what Ki was measured for CCN(c1nc(C)cc(C)n1)c1ccc(Br)cc1SC ? < 500 nM

Need Ki of CCC(=O)c1ccc(N(CC)c2nc(C)cc(C)n2)c(SC)c1 , thanks. < 500 nM

Can you share its Ki? I mean this compound: CCN(c1nc(C)cc(CN2CCN(c3ccccc3OC)CC2)n1)c1ccc(C(C)C)cc1Br < 500 nM

Fill in: Ki of CCN(c1nc(C)nc(N2CCOCC2)n1)c1c(OC)cc(OC)cc1OC is ___ < 500 nM

GET /values?readout=Ki&item= CCN(c1nc(C)cc(N2CCSC2)n1)c1ccc(C(C)C)cc1I < 500 nM

Which Ki value belongs to CCN(c1nc(C)cc(CN2CCN(c3ccccn3)CC2)n1)c1ccc(C(C)C)cc1Br ? < 500 nM

Consider the compound shown here: CCN(c1nc(C)cc(C)n1)c1ccc(C(C)C)cc1S(C)(=O)=O What is its recorded Ki? < 500 nM

Entry CCN(c1nc(C)cc(Cl)n1)c1ccc(C(C)C)cc1Br has what Ki? < 500 nM

Please report the recorded Ki for CCN(c1nc(C)cc(N2CCOCC2)n1)c1ccc(C(C)C)cc1I . < 500 nM

Entry under review: Cc1cc(C)nc(N(C)c2ccc(C(C)C)cc2)n1 . Reported Ki? 2000 to 10000 nM

What does the record list as Ki for CCc1ccc(N(C)c2nc(C)cc(C)n2)c(Br)c1 ? < 500 nM

Given CCN(c1nc(C)cc(C)n1)c1c(OC)cc(C)cc1OC , state its recorded Ki. 501 to 2000 nM

Give the measured Ki of C=CCN(c1nc(C)cc(C)n1)c1ccccc1Br . 501 to 2000 nM

Suppose we examine the compound CCOc1cc(Br)c(Nc2nc(C)cc(C)n2)c(Br)c1 ; what Ki value has been reported? 501 to 2000 nM

I have this compound here, CCN(c1nc(C)cc(C)n1)c1ccc(OC)cc1Br , and I need its recorded Ki. < 500 nM

###

# STUDY SYSTEM: CRF receptor (Rattus norvegicus, UniProt P35353)
# Construct: 100 μl of membrane suspension as prepared above to give a total reaction volume of 300 μl; from tissue; host or cells: rat cerebral cortex membrane homogenate
# Sequence (P35353 24-415): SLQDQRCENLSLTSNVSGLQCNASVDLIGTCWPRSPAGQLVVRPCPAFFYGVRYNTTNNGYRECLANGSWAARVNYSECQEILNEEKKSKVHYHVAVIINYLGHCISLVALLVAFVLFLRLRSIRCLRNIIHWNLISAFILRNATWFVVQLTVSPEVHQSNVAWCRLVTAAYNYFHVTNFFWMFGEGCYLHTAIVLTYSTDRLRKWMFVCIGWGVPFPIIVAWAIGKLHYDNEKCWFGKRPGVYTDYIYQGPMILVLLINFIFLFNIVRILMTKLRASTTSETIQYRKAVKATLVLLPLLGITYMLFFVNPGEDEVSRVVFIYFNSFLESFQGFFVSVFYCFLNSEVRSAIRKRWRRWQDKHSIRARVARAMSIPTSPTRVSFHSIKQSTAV
# PROCEDURE DETAILS: In vitro CRF receptor binding assay (competition with [125I] ovine CRF, rat cortex membranes)
# EXPERIMENTAL SETUP: read-out: Inhibition Ki
Kindly state Ki for each of the entries shown.

Endpoint output: Ki of CCN(c1nc(C)cc(N)n1)c1ccc(C(C)C)cc1Br [compound 155] . Value? < 500 nM

Which Ki is listed for Cc1cc(Cl)c2ccn(-c3ccc(C(C)C)cc3Br)c2n1 [Example 259] ? < 500 nM

Give the measured Ki of CCN(c1nc(C)cc(COC)n1)c1ccc(C(C)C)cc1I [compound 207] . < 500 nM

Entry CCOC(=O)c1ccc(N(CC)c2nc(C)cc(C)n2)c(SC)c1 [compound 184] : reported Ki = ? 501 to 2000 nM

So what's the measured Ki for this one? COc1cc(Cl)c(Nc2nc(C)cc(C)n2)c(OC)c1 [compound 145] 2000 to 10000 nM

Bench note: what Ki did CCOc1ccc(N(CC)c2nc(C)cc(C)n2)c(Br)c1 [compound 201] show? < 500 nM

Sample Cc1cc(C)nc(N(C)c2ccccc2I)n1 [compound 53] — what was its Ki? 2000 to 10000 nM

Would you kindly share the measured Ki for Cc1cc(C)nc(N(C)c2ccccc2C(F)(F)F)n1 [compound 54] ? 2000 to 10000 nM

What value of Ki has been reported for the following molecule? CCN(c1nc(C)cc(C)n1)c1c(OC)cc(OC)cc1OC [compound 15] < 500 nM

What Ki value was documented for this molecule, Cc1cc(C)nc(N2CCCSc3cc(C(C)C)ccc32)n1 [compound 173] ? 501 to 2000 nM

Name the recorded Ki for CCN(c1nc(C)cc(COc2ccc(-n3ccnc3)cc2)n1)c1ccc(C(C)C)cc1Br [compound 218] . < 500 nM

Using the record for C=CCN(c1nc(C)cc(C)n1)c1c(Br)cc(OC)cc1OC [compound 205] , report its Ki. < 500 nM

Look up Ki: CCN(c1nc(C)cc(OCCC[S+](C)[O-])n1)c1ccc(C(C)C)cc1Br (centres unmarked) [compound 162] < 500 nM

What does the data say about its Ki? Entry: CCN(c1nc(C)cc(C(=O)N(C)C)n1)c1ccc(C(C)C)cc1Br [compound 282] < 500 nM

What value of Ki has been recorded for this entry: CCc1ccc(N(c2nc(C)cc(C)n2)C(C)C)c(SC)c1 [compound 181] < 500 nM

I would be grateful if you could share the reported Ki for CCN(c1nc(C)cc(N(C)CCO)n1)c1ccc(C(C)C)cc1Br [compound 50] . < 500 nM

// query Ki value for entry CCOC(=O)N1CCN(c2nc(C)nc(N(CC)c3c(Br)cc(OC)cc3OC)n2)CC1 [compound 244] 2000 to 10000 nM

What value of Ki has been recorded for this entry: CCN(c1nc(C)cc(C)n1)c1ccc(C#N)cc1SC [compound 186] < 500 nM

I have this molecule here, CCN(c1nc(C)cc(-c2cccs2)n1)c1ccc(C(C)C)cc1Br [compound 31] , and I need its recorded Ki. < 500 nM

Field request: Ki | item: Cc1ccc(N(C)c2nc(C)cc(C)n2)c(Br)c1 [compound 1] 501 to 2000 nM

What value of measured Ki is listed for CCN(c1nc(C)cc(C)n1)c1ccc(COC)cc1I [compound 172] ? < 500 nM

What value of measured Ki is listed for CCN(c1nc(Cl)nc(Cl)n1)c1ccc(C(C)(C)O)cc1I [compound 249] ? 2000 to 10000 nM

If you can, please state the reported Ki value of CCc1cc(N2CCCCC2)nc(N(C)c2ccc(C(C)C)cc2Br)n1 [compound 194] . < 500 nM

So what does the record say about Ki for CCN(c1nc(C)cc(COCCO)n1)c1ccc(C(C)C)cc1Br [compound 225] ? < 500 nM

Given CCCCc1ccc(N(CC)c2nc(CC)cc(CC)n2)c(Br)c1 [compound 24] , state its recorded Ki. 501 to 2000 nM

Look up Ki for this molecule: CCN(c1nc(C)cc(NCCN(C)C)n1)c1ccc(C(C)C)cc1Br [compound 163] 501 to 2000 nM

Fill in: Ki of CCN(c1nc(C)cc(C(O)(c2ccc(OC)cc2)c2ccc(OC)cc2)n1)c1ccc(C(C)C)cc1Br [compound 289] is ___ < 500 nM

Return reported Ki; argument: Cc1ccc(N(C)c2nc(C)cc(N3CCOCC3)n2)c(Br)c1 [compound 6] 501 to 2000 nM

Entry Cc1cc(C)nc(N(C)c2ccc(I)cc2)n1 [compound 52] : reported Ki = ? 2000 to 10000 nM

# lookup: Ki of CCN(c1nc(C)nc(N2CCSCC2)n1)c1ccc(C(C)C)cc1I [compound 135] < 500 nM

Reported Ki, molecule CCN(c1nc(C)cc(CN2CCN(c3cnccn3)CC2)n1)c1ccc(C(C)C)cc1Br [compound 278] : ____ < 500 nM

Request the reported Ki associated with Cc1cc(N2CCCCC2)nc(N(C)c2ccc(C(C)C)cc2Br)n1 [compound 195] < 500 nM

If you can, please state the reported Ki value of Cc1cc(Cl)nc2c1c(C#N)cn2-c1ccc(C(C)C)cc1Br [Example 262] . < 500 nM

Report Ki for CCN(c1nc(C)cc(COCCOC)n1)c1ccc(C(C)C)cc1Br [compound 227] please. < 500 nM

Reported Ki for CCN(c1nc(C)cc(C)n1)c1ccc(C(C)OC)cc1SC (centres unmarked) [compound 189] : what is it? < 500 nM

What measured Ki goes with CCN(c1nc(C)nc(N2CCOCC2)n1)c1ccc(C(C)C)cc1I [compound 136] ? < 500 nM

Give its Ki value. Item: Cc1cc(C)nc(N(CC2CC2)c2ccc(C(C)C)cc2Br)n1 [compound 33] < 500 nM

What value of Ki has been reported for the following molecule? Cc1cc(C)nc(N(C)c2ccc(C(C)C)cc2Br)n1 [compound 4] < 500 nM
